Origin of the recorded values: ChEMBL document CHEMBL6134818

# assayedTarget: Alpha-ketoglutarate-dependent dioxygenase FTO (Homo sapiens)
# Sequence (Q9C0B1 whole entry, the tested form may be a part): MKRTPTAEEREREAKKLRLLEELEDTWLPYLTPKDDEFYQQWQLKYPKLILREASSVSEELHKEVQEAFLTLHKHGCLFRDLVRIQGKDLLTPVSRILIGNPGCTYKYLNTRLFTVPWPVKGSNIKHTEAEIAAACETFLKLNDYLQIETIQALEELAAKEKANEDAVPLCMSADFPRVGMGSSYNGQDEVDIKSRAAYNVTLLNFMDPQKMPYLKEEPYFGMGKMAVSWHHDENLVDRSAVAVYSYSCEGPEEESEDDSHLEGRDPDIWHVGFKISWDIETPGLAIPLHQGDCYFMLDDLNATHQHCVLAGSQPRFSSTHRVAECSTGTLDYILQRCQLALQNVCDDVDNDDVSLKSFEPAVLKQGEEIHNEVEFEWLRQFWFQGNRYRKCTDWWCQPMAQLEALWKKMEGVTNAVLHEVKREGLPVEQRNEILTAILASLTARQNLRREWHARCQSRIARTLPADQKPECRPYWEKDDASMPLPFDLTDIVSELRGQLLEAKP
# methodDescription: Inhibition of N-terminal truncated FTO demethylation (unknown origin) using 5'-ATTGCCATTCTCGATAGG(dm6A)TCCGGTCAAACCTAGACGAA-3' ssDNA template incubated for 2 hrs by PAGE-based assay
pIC50: −log10 of the molar value.
attributeMeasured: pIC50

A = Cc1n[nH]c(C)c1-c1cc(C2CC2)c(Nc2ccsc2C(=O)NC#N)c(C2CC2)c1
B = Cc1n[nH]c(C)c1-c1cc(Cl)c(Nc2ccsc2C(=O)O)c(Cl)c1
**Query** Pick one, A or B : lowest reported pIC50. When you have decided, please share the label of that item.
**Result** B
(B: 6.17, A: 6.57)
